test system: M. luteus DBM 3053; type: cell-based, Micrococcus luteus; details: DBM 3053, 25 h
Residues, ends and D or L forms follow the SMILES beside them. *: point of attachment. Lithocholoyl = C[C@H](CCC(=O)*)[C@H]1CC[C@H]2[C@@H]3CC[C@@H]4C[C@H](O)CC[C@]4(C)[C@H]3CC[C@]12C; Palmitoyl = CCCCCCCCCCCCCCCC(=O)*
Please respond with reported IC50 for every item in the list.
Reply numerically in µg/mL, unit not repeated.

Input: For the molecule CC(C)C[C@H](NC(=O)[C@@H](NC(=O)CNC(=O)CC[C@@H](C)[C@H]1CC[C@H]2[C@@H]3CC[C@@H]4C[C@H](O)CC[C@]4(C)[C@H]3CC[C@]12C)C(C)C)C(=O)N[C@@H](CCCCN)C(=O)N[C@@H](CCCNC(=N)N)C(=O)N[C@@H](C)C(N)=O [SHP-3.3, LCA-GVLKRA-NH2] (Lithocholoyl-GVLKRA-NH2) , report IC50.
Output: 5.0

Input: For the molecule CC(C)C[C@H](NC(=O)CC[C@@H](C)[C@H]1CC[C@H]2[C@@H]3CC[C@@H]4C[C@H](O)CC[C@]4(C)[C@H]3CC[C@]12C)C(=O)N[C@H](C(=O)N[C@@H](CCCCN)C(=O)N[C@@H](CCCNC(=N)N)C(=O)N[C@@H](C)C(=O)NCC(N)=O)C(C)C [SHP-1.3, LCA-LVKRAG-NH2] (Lithocholoyl-LVKRAG-NH2) , report IC50.
Output: 10.0

Input: For the molecule CCCCCCCCCCCCCCCC(=O)N[C@@H](CC(C)C)C(=O)N[C@H](C(=O)N[C@@H](CCCCN)C(=O)N[C@@H](CCCNC(=N)N)C(=O)N[C@@H](C)C(=O)NCC(N)=O)C(C)C [SHP-1.2, PAL-LVKRAG-NH2] (Palmitoyl-LVKRAG-NH2) , report IC50.
Output: 10.0

Input: For the molecule CCCCCCCCCCCCCCCC(=O)NCC(=O)N[C@H](C(=O)N[C@@H](CC(C)C)C(=O)N[C@@H](CCCCN)C(=O)N[C@@H](CCCNC(=N)N)C(=O)N[C@@H](C)C(N)=O)C(C)C [SHP-3.2, PAL-GVLKRA-NH2] (Palmitoyl-GVLKRA-NH2) , report IC50.
Output: 10.0

* * *

test system: HepG2; test: Cytotoxicity assay (xCELLigence impedance); type: cell-based, human; conditions: c 100 µg/mL, 24 h exposure
Residues, ends and D or L forms follow the SMILES beside them. *: point of attachment. Lithocholoyl = C[C@H](CCC(=O)*)[C@H]1CC[C@H]2[C@@H]3CC[C@@H]4C[C@H](O)CC[C@]4(C)[C@H]3CC[C@]12C; Palmitoyl = CCCCCCCCCCCCCCCC(=O)*
Quantity: % inhibition
Provide a numeric answer, followed by its unit.

Input: For the molecule CC(C)C[C@H](NC(=O)CC[C@@H](C)[C@H]1CC[C@H]2[C@@H]3CC[C@@H]4C[C@H](O)CC[C@]4(C)[C@H]3CC[C@]12C)C(=O)N[C@H](C(=O)N[C@@H](CCCCN)C(=O)N[C@@H](CCCNC(=N)N)C(=O)N[C@@H](C)C(=O)NCC(N)=O)C(C)C [SHP-1.3, LCA-LVKRAG-NH2] (Lithocholoyl-LVKRAG-NH2) , report % inhibition.
Output: 92.8 ± 13.9%

Input: For the molecule CC(C)C[C@H](NC(=O)[C@@H](NC(=O)CNC(=O)CC[C@@H](C)[C@H]1CC[C@H]2[C@@H]3CC[C@@H]4C[C@H](O)CC[C@]4(C)[C@H]3CC[C@]12C)C(C)C)C(=O)N[C@@H](CCCCN)C(=O)N[C@@H](CCCNC(=N)N)C(=O)N[C@@H](C)C(N)=O [SHP-3.3, LCA-GVLKRA-NH2] (Lithocholoyl-GVLKRA-NH2) , report % inhibition.
Output: 35.6 ± 5.3%

Input: For the molecule CC(C)C[C@H](NC(=O)CC[C@@H](C)[C@H]1CC[C@H]2[C@@H]3CC[C@@H]4C[C@H](O)CC[C@]4(C)[C@H]3CC[C@]12C)C(=O)N[C@H](C(=O)N[C@@H](CCCCN)C(=O)NCC(=O)N[C@@H](C)C(=O)N[C@@H](CCCNC(=N)N)C(N)=O)C(C)C [SHP-2.3, LCA-LVKGAR-NH2] (Lithocholoyl-LVKGAR-NH2) , report % inhibition.
Output: 0.0 ± 2.2%

Input: For the molecule CCCCCCCCCCCCCCCC(=O)N[C@@H](CC(C)C)C(=O)N[C@H](C(=O)N[C@@H](CCCCN)C(=O)NCC(=O)N[C@@H](C)C(=O)N[C@@H](CCCNC(=N)N)C(N)=O)C(C)C [SHP-2.2, PAL-LVKGAR-NH2] (Palmitoyl-LVKGAR-NH2) , report % inhibition.
Output: 11.4 ± 1.7%

Input: For the molecule CCCCCCCCCCCCCCCC(=O)NCC(=O)N[C@H](C(=O)N[C@@H](CC(C)C)C(=O)N[C@@H](CCCCN)C(=O)N[C@@H](CCCNC(=N)N)C(=O)N[C@@H](C)C(N)=O)C(C)C [SHP-3.2, PAL-GVLKRA-NH2] (Palmitoyl-GVLKRA-NH2) , report % inhibition.
Output: 20.7 ± 3.1%
